measurement_type: melting point

| compound | melting point |
| --- | --- |
| COc1cc(C[C@H](NC(=O)C2(NC(=O)[C@@H](S)C(C)C)CCCC2)C(=O)O)ccc1-c1ccccc1 (stereo in doubt) | 121 to 123 °C |
| CCC[C@H](S)C(=O)NC1(C(=O)N[C@@H](Cc2ccc(-c3ccno3)cc2)C(=O)O)CCCC1 (stereo in doubt) | 95 to 108 °C |
| COc1ccc(-c2ccc(C[C@H](NC(=O)C3(NC(=O)[C@@H](S)C(C)C)CCCC3)C(=O)O)cc2)cc1 (stereo in doubt) | 179 to 181 °C |

(Q) Give the measured melting point of CC(C)C[C@H](S)C(=O)NC1(C(=O)N[C@@H](Cc2ccc(-c3ccno3)cc2)C(=O)O)CCCC1 (stereo in doubt) .
(A) 104 to 110 °C
